Value source: patent US20210371503A1

Assayed System: S1 (truncated S1 subunit)
Method Description: ELISA, coated truncated S1 [cont'd]
Answer each item with its documented EC50.

Check out these entries, answers already filled in.
INSERT INTO assay_data (binder, assay_value) VALUES
  ('HbnC3t1p2_B10 (antibody, V domains shown) VH: EVQLVESGGGLVQPGGSLRLSCAASGFIVSSNYMSWVRQAPGKGLEWVSVIYSGGSTFYADSVKGRFTISRDNSKNTLYLQMNSLRAEDTAVYYCARDYGDYFFDYWGQGTLVTVSS VL: EIVLTQSPGTLSLSPGERATLSCRASQSVSSYLAWYQQKPGQAPRLLISGASSRAAGIPDRFSGSGSGTDFTLTINRLEPEDFAVYYCQQYGSSPRTFGQGTKLEIK', '< 100 µg/mL'),
  ('HbnC4t1p1_D5 (antibody, V domains shown) VH: EVQLVESGGGLVQPGRSLRLSCAASGFTFDDYAMHWVRQAPGKGLEWVSGISWNSGSIGYADSVKGRFTISRDNAKNSLYLQMNSLRAEDTGLYYCAKDINYDSGGYHKNYFDYWGQGTLVTVSS VL: DIQMTQSPSSLSASVGDRATITCRASQSISSYLNWYQEKPGKAPKLLIYAASSLQSGVPSRFSGSGSGTDFTLTISSLQPEDFATYYCQQSYSNPLTFGGGTKVEIK', '< 1000 µg/mL');

Now for the binder whose EC50 we want.
// query Endpoint output: EC50 of FnC1t2p1_G5 (antibody, V domains shown) VH: QVQLVQSGSELKKPGASVKVSCKASGYTFLRFAMNWLRQAPGQGLEWMGWIDTNTGTPTYAQGFTGRFVFSLDTSVSTAYLQISSLKAEDTAVYYCARSLRGANLVPWGQGTLVTVSS VL: DIQMTQSPSSLSASVGDRVTITCQASQDVSNYLNWYQQQPGKAPKLLIYDAFNLETGVPSRFSGSGSGTDFTFTISSLQPEDIATYYCQQYDNLPLTFGGGTKVEIK . Value?
// result < 100 µg/mL
